Source listed as patent US12187701B2.

System: HCT116 cells
Test: Antiproliferation assay, Cell Titer Glo, 72 hours
Format: cell-based
Conditions: Homo sapiens, HCT-116, 72 h
metric_name: IC50 (nM)
Your answer should be a plain number; it is taken to be in nM.

Exercise: // lookup IC50 | system=HCT116 cells | key= CN(C)C/C=C/C(=O)Nc1cccc(C(=O)Nc2cccc(NC(=O)c3n[nH]cc3NC(=O)c3c(Cl)cccc3Cl)c2)c1
Key: 366

Exercise: Please give the result for C=CC(=O)Nc1cccc(S(=O)(=O)N2CCC(NC(=O)c3n[nH]cc3NC(=O)c3c(Cl)cc(Cl)cc3Cl)CC2)c1 too.
Key: 25

Exercise: Please give the result for CN(C)C/C=C/C(=O)Nc1cccc(S(=O)(=O)N2CCC(NC(=O)c3n[nH]cc3NC(=O)c3c(Cl)cc(Cl)cc3Cl)CC2)c1 too.
Key: 450

Exercise: Please give the result for CN(C)C/C=C/C(=O)Nc1cccc(S(=O)(=O)N2CCC(NC(=O)c3n[nH]cc3NC(=O)c3c(F)cc(F)cc3F)CC2)c1 too.
Key: 90

Exercise: Please give the result for C=CC(=O)Nc1cccc(N2CCC(NC(=O)c3n[nH]cc3NC(=O)c3c(Cl)cccc3Cl)CC2)c1 too.
Key: 93

Exercise: Please give the result for CN(C)C/C=C/C(=O)Nc1cccc(S(=O)(=O)N2CCC(NC(=O)c3n[nH]cc3NC(=O)c3c(F)cccc3F)CC2)c1 too.
Key: 157

Exercise: Please give the result for CN(C)C/C=C/C(=O)Nc1ccc(C(=O)N2CCC(NC(=O)c3n[nH]cc3NC(=O)c3c(Cl)cccc3Cl)CC2)cc1 too.
Key: 71

Exercise: Please give the result for C=CC(=O)Nc1ccc(S(=O)(=O)N2CCC(NC(=O)c3n[nH]cc3NC(=O)c3c(Cl)cccc3Cl)CC2)cc1 too.
Key: 31

Exercise: Please give the result for C=CC(=O)Nc1cccc(S(=O)(=O)N2CCC(NC(=O)c3nscc3NC(=O)c3c(Cl)cccc3Cl)CC2)c1 too.
Key: 563

Exercise: Please give the result for C=CC(=O)Nc1cccc(CN2CCC(NC(=O)c3n[nH]cc3NC(=O)c3c(Cl)cc(Cl)cc3Cl)CC2)c1 too.
Key: 11

Exercise: Please give the result for CN(C)C/C=C/C(=O)N1CCC[C@@H](NC(=O)c2n[nH]cc2NC(=O)c2c(Cl)cccc2Cl)C1 too.
Key: 157

Exercise: Please give the result for CN(C)C/C=C/C(=O)Nc1ccc(C(=O)N2CCC[C@@H](NC(=O)c3n[nH]cc3NC(=O)c3c(Cl)cccc3Cl)C2)cc1 too.
Key: 726

Exercise: Please give the result for C=CC(=O)Nc1cccc(S(=O)(=O)N2CCC(NC(=O)c3n[nH]cc3NC(=O)c3ccccc3)CC2)c1 too.
Key: 382

Exercise: Please give the result for C=CC(=O)Nc1ccc(NC(=O)c2n[nH]cc2NC(=O)c2c(Cl)cccc2Cl)cc1 too.
Key: 17

Exercise: Please give the result for CN(C)C/C=C/C(=O)Nc1cccc(CN2CCC(NC(=O)c3n[nH]cc3NC(=O)c3c(Cl)cc(Cl)cc3Cl)CC2)c1 too.
Key: 156

Exercise: Please give the result for C=CC(=O)Nc1ccc(S(=O)(=O)N2CC[C@@H](NC(=O)c3n[nH]cc3NC(=O)c3c(Cl)cccc3Cl)C2)cc1 too.
Key: 3000

Exercise: Please give the result for C=CC(=O)N1CCC[C@H](NC(=O)c2n[nH]cc2NC(=O)c2c(Cl)cccc2Cl)C1 too.
Key: 737

Exercise: Please give the result for CN(C)C/C=C/C(=O)Nc1ccc(N2CCC(NC(=O)c3n[nH]cc3NC(=O)c3c(Cl)cccc3Cl)CC2)cc1 too.
Key: 541

Exercise: Please give the result for COc1ccc(Cl)c(C(=O)Nc2c[nH]nc2C(=O)NC2CCN(S(=O)(=O)c3cccc(NC(=O)/C=C/CN(C)C)c3)CC2)c1Cl too.
Key: 23

Exercise: Please give the result for CN(C)C/C=C/C(=O)Nc1cccc(CN2CCC(NC(=O)c3n[nH]cc3NC(=O)c3c(F)cccc3F)CC2)c1 too.
Key: 437

Exercise: Please give the result for CN(C)C/C=C/C(=O)Nc1ccc(S(=O)(=O)N2CCC(NC(=O)c3n[nH]cc3NC(=O)c3c(Cl)cccc3Cl)CC2)cc1 too.
Key: 23

Exercise: Please give the result for C=CC(=O)Nc1cccc(S(=O)(=O)N2CCC(NC(=O)c3nn(C)cc3NC(=O)c3c(Cl)cccc3Cl)CC2)c1 too.
Key: 9000
